# measurement.target: T1, human IL-36R on cells (human, UniProt Q9HB29 20-575)
# T1 sequence (looked up): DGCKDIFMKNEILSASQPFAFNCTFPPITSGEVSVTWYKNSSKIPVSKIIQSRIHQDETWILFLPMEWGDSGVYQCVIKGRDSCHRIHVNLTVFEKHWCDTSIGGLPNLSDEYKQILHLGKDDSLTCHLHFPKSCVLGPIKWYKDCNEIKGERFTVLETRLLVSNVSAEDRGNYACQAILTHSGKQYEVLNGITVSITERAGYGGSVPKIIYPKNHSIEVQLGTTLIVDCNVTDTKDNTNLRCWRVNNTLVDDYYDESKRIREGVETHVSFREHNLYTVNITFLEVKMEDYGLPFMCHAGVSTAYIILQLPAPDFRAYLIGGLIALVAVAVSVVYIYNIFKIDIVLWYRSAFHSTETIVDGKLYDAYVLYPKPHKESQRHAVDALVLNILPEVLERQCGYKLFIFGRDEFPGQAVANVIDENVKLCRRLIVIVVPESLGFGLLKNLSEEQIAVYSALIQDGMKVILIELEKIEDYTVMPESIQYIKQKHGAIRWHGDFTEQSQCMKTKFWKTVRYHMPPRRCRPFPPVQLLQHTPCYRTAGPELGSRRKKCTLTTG
# assay.details: cell-based or functional assay
measure.name: IC90, IL-8 release, NCI/ADR-RES cells, trun-IL-36g (nM)

[
  {
    "binder": "antibody 73C5 (antibody, V domains shown, Mouse monoclonal from hybridoma; also called 73C5C10; Mouse 73C5) VH: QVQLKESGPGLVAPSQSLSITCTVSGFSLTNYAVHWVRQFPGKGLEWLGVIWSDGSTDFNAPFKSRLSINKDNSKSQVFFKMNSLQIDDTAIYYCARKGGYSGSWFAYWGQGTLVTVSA VL: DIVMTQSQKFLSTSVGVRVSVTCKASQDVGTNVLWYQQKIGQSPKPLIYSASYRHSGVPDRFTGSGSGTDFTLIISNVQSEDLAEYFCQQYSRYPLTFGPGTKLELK",
    "test.value": 1.4
  },
  {
    "binder": "antibody 78C8 (antibody, V domains shown, Mouse monoclonal from hybridoma; also called 78C8D1; Mouse 78C8) VH: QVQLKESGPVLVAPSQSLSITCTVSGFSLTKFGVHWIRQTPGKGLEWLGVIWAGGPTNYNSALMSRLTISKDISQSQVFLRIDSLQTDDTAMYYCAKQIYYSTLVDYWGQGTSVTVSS VL: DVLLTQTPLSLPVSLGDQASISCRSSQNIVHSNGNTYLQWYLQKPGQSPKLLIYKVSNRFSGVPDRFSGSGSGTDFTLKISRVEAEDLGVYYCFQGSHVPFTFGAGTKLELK",
    "test.value": 1.4
  },
  {
    "binder": "antibody 33D10 (antibody, V domains shown, Mouse monoclonal from hybridoma; also called 33D10B12; Mouse 33D10) VH: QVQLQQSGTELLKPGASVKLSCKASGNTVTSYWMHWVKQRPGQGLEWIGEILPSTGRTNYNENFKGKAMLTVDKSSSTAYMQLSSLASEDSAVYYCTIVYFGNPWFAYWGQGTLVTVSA VL: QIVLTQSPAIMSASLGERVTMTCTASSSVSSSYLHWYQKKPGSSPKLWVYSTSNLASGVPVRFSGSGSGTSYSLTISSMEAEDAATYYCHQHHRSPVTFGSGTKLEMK",
    "test.value": 0.5
  }
]
